Could you please report measured TGI for the items listed next?
# System: BT-549 breast
# experiment: NCI tumour cell line growth inhibition, 48 h
Where a SMILES comes first, the peptide text is derived from it. [ ]: non-standard residue; d: D form. The star is where a group is joined. X28 = COC1=CC(=O)N(C(=O)[C@@H](O*)C(C)C)[C@H]1Cc1ccccc1; Bn2Val = CC(C)[C@@H](C(=O)*)N(Cc1ccccc1)Cc1ccccc1; NMeV = CN[C@H](C(=O)O)C(C)C; dNMeA = CN[C@H](C)C(=O)O

input: Reported TGI for `C=C(C)[C@@H]1CC[C@]2(COCCCNCCCN)CC[C@]3(C)[C@H](CC[C@@H]4[C@@]5(C)CC[C@H](OCCCN)C(C)(C)[C@@H]5CC[C@]43C)[C@@H]12` : what is it?
output: 14.2 µM

input: Reported TGI for COC1=CC(=O)N(C(=O)[C@@H](OC(=O)[C@@H](C)N(C)C(=O)[C@@H]2CCCN2C(=O)[C@H](C(C)C)N(C)C(=O)[C@@H](NC(=O)[C@H](C(C)C)N(Cc2ccccc2)Cc2ccccc2)C(C)C)C(C)C)[C@H]1Cc1ccccc1 (Bn2Val-V[NMeV]P[dNMeA]-X28) : what is it?
output: > 100 µM

input: Reported TGI for CC(C)(C)c1cc(C(=O)C2Cc3ccccc3C(=O)O2)cc(C(C)(C)C)c1O (stereo not given) : what is it?
output: 42.6 µM

input: Reported TGI for `Fc1ccc2[nH]cc(-c3nc(-c4c[nH]c5ccncc45)cs3)c2c1` : what is it?
output: 3.07 µM

input: Reported TGI for `c1cc(CN2CCCNCCNCCCNCC2)ccc1CN1CCCNCCNCCCNCC1` : what is it?
output: > 100 µM

input: Reported TGI for `CC(=O)NNC(=S)/N=C\c1c(O)c2ccccc2oc1=O` : what is it?
output: > 100 µM

input: Reported TGI for CCOC(=O)C1(C#N)C2(C#N)C(N)=NC(ON=C(C)C)(ON=C(C)C)C12C#N (stereo not given) : what is it?
output: > 100 µM

input: Reported TGI for O=C1NC(O)c2ccccc2O1 (stereo not given) : what is it?
output: > 100 µM

input: Reported TGI for `Oc1cc(O)c2c(c1)O[C@H](c1cc(O)c(O)c(O)c1)[C@@H](O)C2` : what is it?
output: 51.5 µM

input: Reported TGI for CCN(CC)CCC(=O)OC1C(C)=CC(C)C(=O)CC(C(C)CC2CCC(O)C(OC)C2)OC(=O)C2CCCCN2C(=O)C(=O)[C@@]2(O)OC(CCC2C)CC(OC)\C(C)=C/C=C/C=C/C(C)CC(C)C(=O)C1OC (stereo not given in full) : what is it?
output: 15.5 µM

input: Reported TGI for `CCCCOc1c(C(=O)O)cc(Br)cc1C(=O)O` : what is it?
output: > 100 µM

input: Reported TGI for O=C(O)C1CCN(Cc2oc(CO)cc(=O)c2O)C1 (stereo not given) : what is it?
output: > 100 µM

input: Reported TGI for `CN(C)C(=S)/N=c1\ssc(=S)n1Cc1cccs1` : what is it?
output: > 100 µM

input: Reported TGI for `Clc1ccc2nc3n[nH]c(Cl)c3nc2c1` : what is it?
output: > 100 µM

input: Reported TGI for `COc1cc(OC)c(/C=C/C(=O)c2ccc(Nc3ncnc4ccccc34)cc2)c(OC)c1` : what is it?
output: 3.62 µM

input: Reported TGI for `COc1ccc(OC)c(NC(=O)c2cccc(NC3=C(Cl)C(=O)N(Cc4ccccc4)C3=O)c2)c1` : what is it?
output: > 100 µM

input: Reported TGI for `CCCCC[C@H]1CC=C2C(=O)C=C[C@@H]2CC=CCCCC(=O)O[C@@H](CCCCC)CC=C2C(=O)C=C[C@@H]2CC=CCCCC(=O)O[C@@H](CCCCC)CC=C2C(=O)C=C[C@@H]2CC=CCCCC(=O)O1` : what is it?
output: 0.772 µM

input: Reported TGI for `Clc1ccccc1[C@@H]1C[C@@H]2Cc3cc(Br)c4ccccc4c3N1O2` : what is it?
output: > 100 µM

input: Reported TGI for `CSc1c2c(C)n[nH]c2nn1-c1ccccc1` : what is it?
output: > 100 µM

input: Reported TGI for `Cc1ccc(S(=O)(=O)/N=C2/N(C)CCCS2(=O)=O)cc1` : what is it?
output: > 100 µM
